Target: Human α2δ-1 subunit of Cav2.2 calcium channel (Homo sapiens, UniProt P54289)
Sequence (P54289 25-1103): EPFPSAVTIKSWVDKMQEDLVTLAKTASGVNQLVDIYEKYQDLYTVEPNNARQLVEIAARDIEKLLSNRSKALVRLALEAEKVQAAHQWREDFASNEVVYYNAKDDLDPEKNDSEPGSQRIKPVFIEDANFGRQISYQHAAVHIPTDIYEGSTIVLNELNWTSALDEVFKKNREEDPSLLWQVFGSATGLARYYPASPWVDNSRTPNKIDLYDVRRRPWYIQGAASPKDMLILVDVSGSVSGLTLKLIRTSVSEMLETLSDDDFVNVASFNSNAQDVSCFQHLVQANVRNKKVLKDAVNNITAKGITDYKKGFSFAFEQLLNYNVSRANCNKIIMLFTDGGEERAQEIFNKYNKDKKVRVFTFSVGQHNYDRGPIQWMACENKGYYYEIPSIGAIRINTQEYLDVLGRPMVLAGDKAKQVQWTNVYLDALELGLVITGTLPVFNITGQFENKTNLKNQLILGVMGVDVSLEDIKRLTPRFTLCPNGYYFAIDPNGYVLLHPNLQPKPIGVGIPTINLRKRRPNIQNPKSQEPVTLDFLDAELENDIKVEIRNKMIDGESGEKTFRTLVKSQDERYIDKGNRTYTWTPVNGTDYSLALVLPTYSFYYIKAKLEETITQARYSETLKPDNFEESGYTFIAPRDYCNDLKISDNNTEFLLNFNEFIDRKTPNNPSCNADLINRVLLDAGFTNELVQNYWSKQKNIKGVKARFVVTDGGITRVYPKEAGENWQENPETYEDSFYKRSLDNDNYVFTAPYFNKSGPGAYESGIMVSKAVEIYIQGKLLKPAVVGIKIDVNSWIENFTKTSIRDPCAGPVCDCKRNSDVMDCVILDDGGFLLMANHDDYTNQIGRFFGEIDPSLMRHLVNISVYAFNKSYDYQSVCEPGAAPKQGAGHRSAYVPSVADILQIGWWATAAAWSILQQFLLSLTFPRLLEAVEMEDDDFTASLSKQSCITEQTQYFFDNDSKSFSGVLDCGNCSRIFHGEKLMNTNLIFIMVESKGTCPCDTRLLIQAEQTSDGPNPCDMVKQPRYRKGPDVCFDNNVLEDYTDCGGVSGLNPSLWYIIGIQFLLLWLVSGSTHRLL
Assay: Human α2δ-1 subunit of Cav2.2 calcium channel assay ([3H]-Gabapentin binding)
Details: human α2δ-1 enriched membranes, 15 nM [3H]-Gabapentin, binding expressed as Ki; read-out: α2δ1 binding activity
Protocol: Human α2δ-1 Subunit of Cav2.2 Calcium Channel Assay Human α2δ-1 enriched membranes (2.5 μg) were incubated with 15 nM of radiolabeled [3H]-Gabapentin in assay buffer containing Hepes-KOH 10 mM, pH 7.4. NSB (non specific binding) was measured by adding 10 μM pregabalin. The binding of the test compound was measured at five different concentrations. […] Filter plates were dried at 60° C. for 1 hour and 30 μl of scintillation cocktail were added to each well before radioactivity reading. […]
pKi: −log10 of the molar value.
Listing of entries alongside the reported pKi.
Property: pKi

- CCOc1ccc(-n2nc3c(C4CCN(Cc5ccc(O)cn5)CC4)nnc(C)c3c2C)c(F)c1 [Ex 54]: 5.52 to 6.30
- CCOc1ccc(-n2nc3c(C4CCN(CCc5cccc(OC)c5)CC4)nnc(C)c3c2C)c(F)c1 [Ex 45]: 5.52 to 6.30
- CCOc1ccc(-n2nc3c(C4CCN(CC(O)c5ccccc5)CC4)nnc(C)c3c2C)c(F)c1 (stereo not drawn) [Ex 58]: 5.52 to 6.30
- CCOc1ccc(-n2nc3c(/C=C/CNC(=O)OC(C)(C)C)nnc(C)c3c2C)c(F)c1 [Ex 4]: ≤ 5.30
- CCOc1ccc(-n2nc3c(C(C#N)Cc4ccccc4)nnc(C)c3c2C)c(F)c1 (stereo not drawn) [Ex 65]: 5.52 to 6.30
- CCOc1ccc(-n2nc3c(C4=CCN(C)CC4)nnc(C)c3c2C)c(F)c1 [Ex 2]: ≤ 5.30
- CCOc1ccc(-n2nc3c(CCNCc4ccccc4)nnc(C)c3c2C)c(F)c1 [Ex 40]: ≤ 5.30
- CCOc1ccc(-n2nc3c(C4CCNCC4)nnc(C)c3c2C)c(F)c1 [Ex 18]: 5.52 to 6.30
- CCOc1ccc(-n2nc3c(C4CCN(Cc5cc(C(F)(F)F)ccn5)CC4)nnc(C)c3c2C)c(F)c1 [Ex 52]: 5.30 to 5.52
- CCOc1ccc(-n2nc3c(C4CCN(Cc5ccc(F)cn5)CC4)nnc(C)c3c2C)c(F)c1 [Ex 55]: 5.52 to 6.30
- CCOc1ccc(-n2nc3c(C4CCN(Cc5ncccc5O)CC4)nnc(C)c3c2C)c(F)c1 [Ex 31]: 5.52 to 6.30
- CCOc1ccc(-n2nc3c(CCCN(C)C(=O)OC(C)(C)C)nnc(C)c3c2C)c(F)c1 [Ex 17]: ≤ 5.30
- CCOc1ccc(-n2nc3c(C4CCN(CCC5CCOCC5)CC4)nnc(C)c3c2C)c(F)c1 [Ex 34]: 5.30 to 5.52
- CCOc1ccc(-n2nc3c(C4CCN(CCc5ccc(F)cc5)CC4)nnc(C)c3c2C)c(F)c1 [Ex 46]: 5.52 to 6.30
- CCOc1ccc(-n2nc3c(CCCN(C)CCc4ccccc4)nnc(C)c3c2C)c(F)c1 [Ex 39]: 5.52 to 6.30
- CCOc1ccc(-n2nc3c(C4CCN(C)CC4)nnc(C)c3c2C)c(F)c1 [Ex 14]: 5.52 to 6.30
- CCOc1ccc(-n2nc3c(C4CCN(CCc5cccnc5)CC4)nnc(C)c3c2C)c(F)c1 [Ex 47]: 5.52 to 6.30
- CCOc1ccc(-n2nc3c(C4CCN(CC5CCOCC5)CC4)nnc(C)c3c2C)c(F)c1 [Ex 33]: 5.52 to 6.30

====

Molecular target: human μ-opioid receptor (Homo sapiens)
Construct: expressed in transfected cells; host or cells: CHO-K1
Sequence (P35372 whole entry): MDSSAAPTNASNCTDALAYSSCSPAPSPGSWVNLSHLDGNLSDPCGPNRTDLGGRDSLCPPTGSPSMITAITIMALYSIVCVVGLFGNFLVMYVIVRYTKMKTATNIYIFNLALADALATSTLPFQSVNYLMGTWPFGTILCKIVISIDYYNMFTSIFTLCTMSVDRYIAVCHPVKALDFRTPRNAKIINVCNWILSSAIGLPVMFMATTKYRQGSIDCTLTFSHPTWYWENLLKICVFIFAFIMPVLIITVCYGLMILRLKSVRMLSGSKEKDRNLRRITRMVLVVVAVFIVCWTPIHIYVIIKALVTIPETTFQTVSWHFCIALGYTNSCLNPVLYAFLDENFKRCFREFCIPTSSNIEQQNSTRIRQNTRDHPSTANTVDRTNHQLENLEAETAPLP
Test: Human μ-opioid receptor radioligand assay ([3H]-DAMGO)
Type: binding
pKi: −log10 of the molar value.
Property: pKi

• CCOc1ccc(-n2nc3c(C4CCN(CCc5ccccc5F)CC4)nnc(C)c3c2C)c(F)c1 = > 6.30
• CCOc1ccc(-n2nc3c(C4CCN(Cc5ccccc5)CC4)nnc(C)c3c2C)c(F)c1 = > 6.30
• CCOc1ccc(-n2nc3c(C4CCN(CCc5cccc(F)c5)CC4)nnc(C)c3c2C)c(F)c1 = > 6.30
• CCOc1ccc(-n2nc3c(C4CCN(Cc5ccccn5)CC4)nnc(C)c3c2C)c(F)c1 = > 6.30
• CCOc1ccc(-n2nc3c(C4CCN(CCc5ccccc5)CC4)nnc(C)c3c2C)c(F)c1 = > 6.30

====

Target: Human α2δ-1 subunit of Cav2.2 calcium channel (Homo sapiens)
Assay: Human α2δ-1 subunit of Cav2.2 calcium channel assay ([3H]-Gabapentin binding)
Details: human α2δ-1 enriched membranes, 15 nM [3H]-Gabapentin, binding expressed as Ki; read-out: α2δ1 binding activity
Listing of entries alongside the reported Ki.
Property: Ki

- CCOc1ccc(-n2nc3c(-c4cccc(CN(C)C)c4)nnc(C)c3c2C)c(F)c1: 0.5 to 3 µM
- CCOc1ccc(-n2nc3c(-c4ccc5ncn(CCN(C)C)c5c4)nnc(C)c3c2C)c(F)c1: 3 to 5 µM
- CCOc1ccc(-n2nc3c(C4CCN(CC5CC5)CC4)nnc(C)c3c2C)c(F)c1: 0.5 to 3 µM
- CCOc1ccc(-n2nc3c(C4CN(CCc5ccccc5)C4)nnc(C)c3c2C)c(F)c1: 0.5 to 3 µM
- CCOc1ccc(-n2nc3c(CCN)nnc(C)c3c2C)c(F)c1: ≥ 5 µM

====

Target: Human α2δ-1 subunit of Cav2.2 calcium channel (Homo sapiens)
Assay: Human α2δ-1 subunit of Cav2.2 calcium channel assay ([3H]-Gabapentin binding)
Conditions: human α2δ-1 enriched membranes, 15 nM [3H]-Gabapentin, binding expressed as Ki; read-out: α2δ1 binding activity
pKi: −log10 of the molar value.
Property: pKi

* CCOc1ccc(-n2nc3c(C4CCN(CCc5ccncc5)CC4)nnc(C)c3c2C)c(F)c1 | 5.52 to 6.30
* CCOc1ccc(-n2nc3c(C4CCN(CCc5ccccc5)CC4)nnc(C)c3c2C)c(F)c1 | 5.52 to 6.30
* CCOc1ccc(-n2nc3c(-c4cccc(CCN(C)C)c4)nnc(C)c3c2C)c(F)c1 | 5.52 to 6.30
* CCOc1ccc(-n2nc3c(CC#N)nnc(C)c3c2C)c(F)c1 | 5.52 to 6.30
* CCOc1ccc(-n2nc3c(C4CCN(Cc5ncccc5C(F)(F)F)CC4)nnc(C)c3c2C)c(F)c1 | 5.52 to 6.30
* CCOc1ccc(-n2nc3c(C4CCN(Cc5ncccc5F)CC4)nnc(C)c3c2C)c(F)c1 | 5.52 to 6.30
* CCOc1ccc(-n2nc3c(C4CCN(CCc5ccccc5F)CC4)nnc(C)c3c2C)c(F)c1 | 5.52 to 6.30
* CCOc1ccc(-n2nc3c(C4CCN(CCc5cccc(F)c5)CC4)nnc(C)c3c2C)c(F)c1 | 5.52 to 6.30
* CCOc1ccc(-n2nc3c(C4CCN(Cc5cn(Cc6ccccn6)nn5)CC4)nnc(C)c3c2C)c(F)c1 | 5.52 to 6.30
* CCOc1ccc(-n2nc3c(CCNCCc4ccccc4)nnc(C)c3c2C)c(F)c1 | ≤ 5.30
* CCOc1ccc(-n2nc3c(-c4ccc5ncn(CCN)c5c4)nnc(C)c3c2C)c(F)c1 | 5.30 to 5.52
* CCOc1ccc(-n2nc3c(C#N)nnc(C)c3c2C)c(F)c1 | ≤ 5.30
* CCOc1ccc(-n2nc3c(C4CCN(Cc5ccccn5)CC4)nnc(C)c3c2C)c(F)c1 | 5.52 to 6.30
* CCOc1ccc(-n2nc3c(C4CCN(Cc5ccncc5)CC4)nnc(C)c3c2C)c(F)c1 | 5.52 to 6.30
* CCOc1ccc(-n2nc3c(C4CCN(Cc5ccc(F)cc5)CC4)nnc(C)c3c2C)c(F)c1 | 5.52 to 6.30
* CCOc1ccc(-n2nc3c(CCNC(=O)OC(C)(C)C)nnc(C)c3c2C)c(F)c1 | ≤ 5.30
* CCOc1ccc(-n2nc3c(C(C#N)C(=O)OC(C)(C)C)nnc(C)c3c2C)c(F)c1 (stereo not drawn) | 5.52 to 6.30
* CCOc1ccc(-n2nc3c(-c4ccc5ncn(CCNC(=O)OC(C)(C)C)c5c4)nnc(C)c3c2C)c(F)c1 | < 5.30

====

Target: Human α2δ-1 subunit of Cav2.2 calcium channel (Homo sapiens, UniProt P54289)
Experiment: Human α2δ-1 subunit of Cav2.2 calcium channel assay ([3H]-Gabapentin binding)
Settings: human α2δ-1 enriched membranes, 15 nM [3H]-Gabapentin, binding expressed as Ki; read-out: α2δ1 binding activity
Listing of entries alongside the reported Ki.
Property: Ki

- CCOc1ccc(-n2nc3c(C4CNC4)nnc(C)c3c2C)c(F)c1: ≥ 5 µM
- CCOc1ccc(-n2nc3c(C(C#N)(Cc4ccccc4)C(=O)OC(C)(C)C)nnc(C)c3c2C)c(F)c1 (stereo not drawn): ≥ 5 µM
- CCOc1ccc(-n2nc3c(/C=C/CN(C)C(=O)OC(C)(C)C)nnc(C)c3c2C)c(F)c1: ≥ 5 µM
- CCOc1ccc(-n2nc3c(C4CCN(Cc5ccc(Cl)cn5)CC4)nnc(C)c3c2C)c(F)c1: 0.5 to 3 µM
- CCOc1ccc(-n2nc3c(CCCNC)nnc(C)c3c2C)c(F)c1: ≥ 5 µM
- CCOc1ccc(-n2nc3c(C4CCN(C(=O)OC(C)(C)C)CC4)nnc(C)c3c2C)c(F)c1: ≥ 5 µM
- CCOc1ccc(-n2nc3c(-c4ccc(CCN(C)C)cc4)nnc(C)c3c2C)c(F)c1: 0.5 to 3 µM
- CCOc1ccc(-n2nc3c(CN4CCC(c5cccc(O)c5)CC4)nnc(C)c3c2C)c(F)c1: 0.5 to 3 µM
- CCOc1ccc(-n2nc3c(C4CCN(Cc5ncccc5Cl)CC4)nnc(C)c3c2C)c(F)c1: 0.5 to 3 µM
- CCOc1ccc(-n2nc3c(C4CCCN(Cc5ccccc5)C4)nnc(C)c3c2C)c(F)c1 (stereo not drawn): 0.5 to 3 µM
- CCOc1ccc(-n2nc3c(C4=CCN(C(=O)OC(C)(C)C)CC4)nnc(C)c3c2C)c(F)c1: ≥ 5 µM
- CCOc1ccc(-n2nc3c(-c4ccc(CN(C)C)cc4)nnc(C)c3c2C)c(F)c1: 0.5 to 3 µM
- CCOc1ccc(-n2nc3c(C4CCCNC4)nnc(C)c3c2C)c(F)c1 (stereo not drawn): ≥ 5 µM
- CCOc1ccc(-n2nc3c(CCCNCc4ccccc4)nnc(C)c3c2C)c(F)c1: 0.5 to 3 µM
- CCOc1ccc(-n2nc3c(C4CN(C(=O)OC(C)(C)C)C4)nnc(C)c3c2C)c(F)c1: ≥ 5 µM
- CCOc1ccc(-n2nc3c(C4CCN(Cc5ccccc5)CC4)nnc(C)c3c2C)c(F)c1: < 0.5 µM
- CCOc1ccc(-n2nc3c(C4CCN(Cc5ncccc5OC)CC4)nnc(C)c3c2C)c(F)c1: 0.5 to 3 µM
- CCOc1ccc(-n2nc3c(C4CCN(Cc5cccnc5)CC4)nnc(C)c3c2C)c(F)c1: 0.5 to 3 µM
- CCOc1ccc(-n2nc3c(C4=CN(C(=O)OC(C)(C)C)CCC4)nnc(C)c3c2C)c(F)c1: ≥ 5 µM
- CCOc1ccc(-n2nc3c(CCCNC(=O)OC(C)(C)C)nnc(C)c3c2C)c(F)c1: ≥ 5 µM
- CCOc1ccc(-n2nc3c(C4CCCN(C(=O)OC(C)(C)C)C4)nnc(C)c3c2C)c(F)c1 (stereo not drawn): ≥ 5 µM
- CCOc1ccc(-n2nc3c(C4CCN(CCc5ccccn5)CC4)nnc(C)c3c2C)c(F)c1: 0.5 to 3 µM
- CCOc1ccc(-n2nc3c(CCCN)nnc(C)c3c2C)c(F)c1: 0.5 to 3 µM
- CCOc1ccc(-n2nc3c(C4CCN(Cc5ccc(C(F)(F)F)cn5)CC4)nnc(C)c3c2C)c(F)c1: 0.5 to 3 µM

Data provenance is patent US20200190087A1.
